assay: A549 NSCLC cell proliferation inhibitors – ATP luminescence, human non-small cell lung line, primary screen (AID 371); conditions: at 10 µM, hits give high values;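 also: compound exposure lasted 72 h before the ATP read; 0% = untreated cell signal and 100% = no luminescence left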
Among all 3,300 compounds or so, about 280 (8.5%) were called active. Only a selection was taken, and actives are over-represented in it overall.
Parameter measured: growth inhibition (%)
# unit: % | format: bare number

Record summary for COc1cc(C2C(C#N)=C(N)Oc3cc(N)ccc32)cc(OC)c1OC (configuration not stated) : reported growth inhibition = 51.6

Documented growth inhibition of "Cc1nc(-c2coc3cc(OCC(=O)O)ccc3c2=O)cs1" : 13.4

Lab note: "COCCOC(=O)c1c(C)oc2ccc(OC(=O)COc3c(F)c(F)c(F)c(F)c3F)cc12" gave growth inhibition of 5.03

----------
Listed here: items and their measured growth inhibition.
experiment: A549 NSCLC cell proliferation inhibitors – ATP luminescence, human non-small cell lung line, primary screen (AID 371); settings: at 10 µM, hits give high values
The whole screen tested about 3,300 compounds, of which about 280 (8.5%) were called active. This is one part of a sample in which actives are shown more often than they occur.
# output: bare number, implied unit %

Example results:
CCn1c(SCC(=O)Nc2ccccc2C(=O)OC)nnc1-c1ccc(N)cc1 :: -4.2
CC(C)(C)C1=Nn2c(nnc2-c2ccco2)SC1 :: 2.63
C=C(C)CN1CCN(c2c(CCC#N)c(C)c(C#N)c3nc4ccccc4n23)CC1 :: 25.9
Cc1c(CCC#N)c(N2CCN(C3CCCCC3)CC2)n2c(nc3ccccc32)c1C#N :: 89.1
O=C1NC(=O)C(c2cn(-c3ccccc3)nc2-c2ccc(F)cc2)N1 (stereo not given) :: 10.6

GET /value?item= "N#Cc1nc(-c2ccccc2Cl)oc1N1CCCCC1" &field=growth inhibition returns 25.2

The reported growth inhibition of the compound CCOP(=O)(c1ccccc1)c1nc(-c2ccc(F)cc2)oc1N1CCCCC1 (stereo not given) was 35.1

// sample "CC(C)N=c1cc2n(-c3ccc(Cl)cc3)c3ccccc3nc-2cc1Nc1ccc(Cl)cc1" , its growth inhibition was 92.5

Looking up CCOP(=O)(c1ccccc1)c1nc(-c2ccccc2C)oc1N1CCCCC1 (stereo not given) , I found its growth inhibition recorded as 90.3

growth inhibition reported for this compound COc1cccc(N2CCN(C3CC(=O)N(c4cccc(Cl)c4)C3=O)CC2)c1 (stereo not given) : 4.23

----------
assay: A549 NSCLC cell proliferation inhibitors – ATP luminescence, human non-small cell lung line, primary screen (AID 371); details: at 10 µM, hits give high values
Hit rate of the full screen: of about 3,300 compounds, about 280 (8.5%) were called active. The full list was thinned out, with actives kept by preference.
Parameter measured: growth inhibition (%)
Give just the numeric value; % need not be written.

Use these answered entries as a reference point.
Cc1cc(=O)n(CCC(=O)O)c2ccccc12 :: 0.16
CC(C)Cc1nc(N2CCOCC2)c(C#N)c2c1CCC2 :: 4.59
COC(=O)c1cc(Br)c(=O)n(Cc2ccc3c(c2)OCO3)c1 :: 9.14

Kindly note the recorded growth inhibition for CCOC(=O)C1=C(C)NC(SCC(=O)Nc2nc(C)cs2)=C(C#N)C1c1cccs1 (stereo unspecified) , which is 86.8

Reported growth inhibition ( C#CCSC1=C(C#N)C(c2cccs2)C(C(=O)OCC)=C(C)N1 (stereo unspecified) ) = 47.5

Record O=C1C2ON(c3ccccc3)C(c3cccnc3)C2C(=O)N1c1ccc(Cl)c(Cl)c1 (stereo unspecified) , field growth inhibition: 3.11

Recorded result, "Cc1nc2c(=O)n(C)c(=O)[nH]c2n1Cc1ccccc1" , growth inhibition: 8.92

Short answer for "CC(C)Cc1nc(N2CCN(C(=O)C(C)C)CC2)c(C#N)c2c1CCC2" : growth inhibition was 42.3

Please fill in: growth inhibition reported for CCSC1=C(C#N)C(c2cccs2)C(C(=O)OC)=C(C)N1 (stereo unspecified) = 30.4

GET /value?item= CCc1cccc(C)c1N(C(=O)Cn1c(=O)[nH]c2ccccc21)C(C)COC (stereo unspecified) &field=growth inhibition returns 17.6

Form field growth inhibition, entry "Nc1c(Br)cc2oc(-c3ccccc3)nc2c1Br" : 31.4

----------
test: A549 NSCLC cell proliferation inhibitors – ATP luminescence, human non-small cell lung line, primary screen (AID 371); details: at 10 µM, hits give high values;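 also: compound exposure lasted 72 h before the ATP read; 0% = untreated cell signal and 100% = no luminescence left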
About 280 (8.5%) of roughly 3,300 compounds were called active. The list comes from a sample in which actives are over-represented; it also holds close analogues and randomly drawn compounds.
growth inhibition by entry:
Response body: numeric value in %, unit text excluded.

Examples from the recorded data:
Nc1ncnc2nc(SCc3ccccc3)[nH]c12 :: 13.6
O=C(Nc1ccc(Cl)cn1)C1CCCN1S(=O)(=O)c1ccccc1 (stereo not drawn) :: -16.6
CNC(=O)c1cc2ccccc2o1 :: -3.18
OC1(C2(O)CC(c3ccccc3)ON2)CCCCC1 (stereo not drawn) :: 19.6
CCOC(=O)N1CCN(C2OC(=O)c3ccccc32)CC1 (stereo not drawn) :: -1.65
c1ccc(C2Nc3ccccc3-c3nc4ccccc4n32)nc1 (stereo not drawn) :: 26

GET /value?item= "Cc1ccc(S(=O)(=O)/C(C#N)=C/c2c(N3CCN(C)CC3)nc3c(C)cccn3c2=O)cc1" &field=growth inhibition returns -1.01

Measured growth inhibition, "COc1cc(/C=C/C(=O)CC(=O)/C=C/c2ccc(O)c(OC)c2)ccc1O" : 75.3

growth inhibition in this record for C=C1C2(C(=O)Nc3nccs3)CCC(C2)C1(C)C (stereo not drawn) : 5.39

Reported growth inhibition ( "CCCCOc1ccc(-c2nnc(N)s2)cc1" ) = 21.4

Measured growth inhibition, CCN(CC)CCCN1C(=O)C(=O)/C(=C(/O)c2ccc(OC)cc2)C1c1ccco1 (stereo not drawn) : 1.94

Input "CCN(CC)C(=O)c1ccc(O)c(OC)c1" . Output growth inhibition: -6.2

growth inhibition measured on "Oc1c(C=NCc2ccncc2)sc2ccccc12" = 3.71

----------
Listed compounds paired with reported growth inhibition
experiment: A549 NSCLC cell proliferation inhibitors – ATP luminescence, human non-small cell lung line, primary screen (AID 371); conditions: at 10 µM, hits give high values;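 also: compound exposure lasted 72 h before the ATP read; 0% = untreated cell signal and 100% = no luminescence left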
In all, about 3,300 compounds went through this assay and about 280 (8.5%) were called active. Many of the other results were omitted from the sample, so actives are more common in it than they were.

Study these solved cases before continuing.
O=C(COc1ccccc1)Nc1ccc(-c2nnc(-c3ccco3)o2)cc1 :: -6.02% (inactive)
COc1ccccc1-n1c(=O)c2c3c(sc2n2c(SC)nnc12)CCC3 :: 6.85% (inactive)
Cn1c(=O)[nH]c(=O)c2c1nc(Br)n2CCSc1ncccn1 :: 4.37% (inactive)
CCSc1nnc(N(CCC#N)CCC#N)s1 :: 4.31% (inactive)
CC1(C)CC(=O)C(C=N)=C(O)C1 :: 1.41% (inactive)
C=CCn1c(=N)c(C(=O)OCC)cc2c(=O)n3cccc(C)c3nc21 :: 16.9% (inactive)
COc1cccc(-c2nc(N3CCCCC3C)c3ccccc3n2)c1O (stereo not given) :: 61.7% (active)
CCOC(=O)c1cc2c(=O)n3ccccc3nc2n(Cc2ccccc2Cl)c1=N :: 52.6% (active)
COc1cccc(C(=O)N2CCN(Cc3ccccn3)CC2)c1OC :: -2.78% (inactive)
CCC(=O)Nc1nc2ccccc2n1CCN(C)C :: 4.62% (inactive)

Given item "Cc1cccc(N2CN=c3s/c(=C\c4ccncc4)c(=O)n3C2)c1" , the value recorded as its growth inhibition is 5.71% (inactive)

Please fill in: growth inhibition reported for COc1ccc(/C(O)=C2\C(=O)C(=O)N(c3cc(C)on3)C2c2ccccc2OC)cc1 (stereo not given) = -10.7% (inactive)

Lookup result for "CCOc1nc(-c2ccncc2)nc2ccccc12" ; measured growth inhibition: 10.3% (inactive)

Briefly, growth inhibition measured for "CCc1cccc(CC)c1N(COC)C(=O)Cn1nnc2ccccc21" : -7.86% (inactive)

For record "CC1(C)Cc2c(C#N)c(NCCN3CCOCC3)nc(-c3ccco3)c2CO1" the listed growth inhibition is 3.05% (inactive)

For this compound ( CCOC(=O)C1=C(C)NC(=O)C1CC(=O)Nc1ccccc1 (stereo not given) ), measured growth inhibition is -0.76% (inactive)

For reference, reported growth inhibition for "COc1ccc(CC(=O)Nc2cccc(-c3nnc(-c4ccco4)o3)c2)cc1" stands at 64% (active)

----------
experiment: A549 NSCLC cell proliferation inhibitors – ATP luminescence, human non-small cell lung line, primary screen (AID 371); conditions: at 10 µM;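 also: compound exposure lasted 72 h before the ATP read; 0% = untreated cell signal and 100% = no luminescence left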
Screen size: about 3,300 compounds; about 280 (8.5%) were called active.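 The calls were made as follows: active = mean growth inhibition over the two runs of 50% or more; inactive = mean growth inhibition under 50%.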 For the sample, actives were picked, then their nearest neighbours and some compounds at random.
Outcome field: choose from True (active), False (inactive)

Examples from the recorded data:
O=c1/c(=C\c2cccn2-c2ccccc2)sc2nc3ccccc3n12 :: False
COc1cccc(N2CCN(C(=O)c3ccc(=O)oc3)CC2C)c1 (configuration not stated) :: False
COc1cccc(N2CCN(c3ncnc4c3[nH]c3ccccc34)CC2C)c1 (configuration not stated) :: True
COC(=O)c1ccc(C2/C(=C(\O)c3cccc(OC)c3)C(=O)C(=O)N2CCCN(C)C)cc1 (configuration not stated) :: False
CC1CCc2cc(F)cc3c(O)c(C(=O)NCC4CCCO4)c(=O)n1c23 (configuration not stated) :: True
CC(=O)C(=[N+]=[N-])C(=O)NCc1ccccc1 :: False
O=C(CC(c1ccc(F)cc1)c1ccco1)N1CCCC1 (configuration not stated) :: False
CC1(C)Cc2c(sc3nc(SCC(=O)NCc4ccco4)n(-c4ccccc4)c(=O)c23)CS1 :: False
CC1CCc2cc(F)cc3c(O)c(C(=O)Nc4cnccn4)c(=O)n1c23 (configuration not stated) :: False
O=c1[nH]c(CN2CCCCC2)nc2c1C1(CCCC1)Cc1ccccc1-2 :: False

Please turn your attention to the following entry.
Call for entry "c1ccc(SCc2nc3ccccc3[nH]2)nc1" :
False
